system: MERTK (UniProt Q12866)
Sequence (Q12866 whole entry, looked up): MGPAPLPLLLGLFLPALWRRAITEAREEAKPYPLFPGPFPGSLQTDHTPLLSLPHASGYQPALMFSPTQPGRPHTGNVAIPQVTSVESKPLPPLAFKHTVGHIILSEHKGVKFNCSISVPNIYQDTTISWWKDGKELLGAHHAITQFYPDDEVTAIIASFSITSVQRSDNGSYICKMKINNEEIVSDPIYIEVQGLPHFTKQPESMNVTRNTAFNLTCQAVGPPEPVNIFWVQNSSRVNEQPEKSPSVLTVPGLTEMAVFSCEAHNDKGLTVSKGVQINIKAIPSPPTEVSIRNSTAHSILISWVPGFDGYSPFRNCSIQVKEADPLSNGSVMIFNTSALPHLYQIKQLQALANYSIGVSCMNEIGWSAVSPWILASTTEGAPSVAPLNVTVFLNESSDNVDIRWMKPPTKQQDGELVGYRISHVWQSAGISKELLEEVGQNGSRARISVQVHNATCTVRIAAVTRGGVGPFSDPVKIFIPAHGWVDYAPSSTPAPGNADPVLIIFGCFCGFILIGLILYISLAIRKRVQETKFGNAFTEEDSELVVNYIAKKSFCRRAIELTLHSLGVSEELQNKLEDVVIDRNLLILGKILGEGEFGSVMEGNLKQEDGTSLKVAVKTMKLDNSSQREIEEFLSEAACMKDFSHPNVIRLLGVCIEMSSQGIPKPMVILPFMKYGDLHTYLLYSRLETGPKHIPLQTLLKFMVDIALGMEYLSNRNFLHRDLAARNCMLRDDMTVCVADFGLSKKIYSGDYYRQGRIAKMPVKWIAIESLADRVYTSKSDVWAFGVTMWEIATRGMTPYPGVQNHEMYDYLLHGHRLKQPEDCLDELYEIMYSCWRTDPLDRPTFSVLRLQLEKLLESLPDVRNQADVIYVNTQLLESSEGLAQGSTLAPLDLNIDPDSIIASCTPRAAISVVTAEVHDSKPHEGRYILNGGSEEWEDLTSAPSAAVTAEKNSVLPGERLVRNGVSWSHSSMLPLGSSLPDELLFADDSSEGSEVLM
experiment-notes: phosphorylation enrichment, bacterial display (enrichment ratio); higher = better substrate or ligand; peptides without Tyr show the background;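 also: 11-residue human phosphosite peptides and single-mutation variants displayed on the E. coli surface, counted by deep sequencing, each peptide's frequency after selection divided by its frequency in the unselected input library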;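 also: frequency after pTyr selection over input frequency; kinase dosed for 20-30% of maximal phosphorylation in three min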
result-type: phosphorylation enrichment

>  <polymer-sequence>
GETEQYVGGGG [FAT4_Y4980_A4977T]

>  <result-type>
phosphorylation enrichment

>  <numeric-readout>
0.414

$$$$
>  <polymer-sequence>
DVLVEYQEEGR [GNS_Y416_G418E]

>  <result-type>
phosphorylation enrichment

>  <numeric-readout>
0.51

$$$$
>  <polymer-sequence>
RSAGKYDVYLI [MECP2_Y120]

>  <result-type>
phosphorylation enrichment

>  <numeric-readout>
0.412

$$$$
>  <polymer-sequence>
GSERDYTFDEL [EIF2S2_Y174_E177D_YF]

>  <result-type>
phosphorylation enrichment

>  <numeric-readout>
0.515

$$$$
>  <polymer-sequence>
HVLEEYKPKQG [SAXO2_Y37_P34L]

>  <result-type>
phosphorylation enrichment

>  <numeric-readout>
0.57

$$$$
>  <polymer-sequence>
ETGEPYRLSPE [EIF4G1_Y311]

>  <result-type>
phosphorylation enrichment

>  <numeric-readout>
0.503

$$$$
>  <polymer-sequence>
KDGNGYISAAE [CALM1_Y100]

>  <result-type>
phosphorylation enrichment

>  <numeric-readout>
0.47

$$$$
>  <polymer-sequence>
IRTIDYRYTVW [IDS_Y497]

>  <result-type>
phosphorylation enrichment

>  <numeric-readout>
0.422

$$$$
>  <polymer-sequence>
AYRRGYFDEEM [PLEC_Y2971]

>  <result-type>
phosphorylation enrichment

>  <numeric-readout>
0.412

$$$$
>  <polymer-sequence>
LGSVVYAHSKE [KCNQ2_Y226]

>  <result-type>
phosphorylation enrichment

>  <numeric-readout>
0.424

$$$$
>  <polymer-sequence>
PRAEWYRDDLL [MYOM2_Y317_V321L]

>  <result-type>
phosphorylation enrichment

>  <numeric-readout>
0.511

$$$$
>  <polymer-sequence>
AGNPAYRSFSN [IL4R_Y497]

>  <result-type>
phosphorylation enrichment

>  <numeric-readout>
0.39

$$$$
>  <polymer-sequence>
DLVSEYQQFQD [TUBB3_Y422_YF]

>  <result-type>
phosphorylation enrichment

>  <numeric-readout>
0.511

$$$$
>  <polymer-sequence>
NTGVYYDLYGG [PTPN11_Y63_D61V]

>  <result-type>
phosphorylation enrichment

>  <numeric-readout>
7.75

$$$$
